Each entry below carries its reported MIC.
# Test system: Staphylococcus aureus
# TEST: MIC (Minimum Inhibitory Concentration)
# Format: cell-based
# EXPERIMENTAL CONDITIONS: Staphylococcus aureus A 321
Numeric only. Scale: µg/mL

Answered examples (3):
I am curious: what MIC value has been reported for [C-]#[N+]C(=Cc1ccc(OC)cc1)S(=O)(=O)c1ccc(C)cc1 ?
3

Same again, this time with [C-]#[N+]C(=CC(C)(C)C)S(=O)(=O)c1ccc(C)cc1
12.5

Same again, this time with [C-]#[N+]C(=C(C)c1ccco1)S(=O)(=O)c1ccc(C)cc1
12.5

Proceed to the following item.
I am curious: what MIC value has been reported for [C-]#[N+]C(=Cc1ccco1)S(=O)(=O)c1ccc(C)cc1 ?
12.5

* * *

# Tested on: Trichophyton mentagrophytus
# TEST: MIC (Minimum Inhibitory Concentration)
# Assay type: cell-based
# EXPERIMENTAL CONDITIONS: Trichophyton mentagrophytus R 177, read-out: MIC values
Could you mark each record Y if its MIC falls strictly under 6 µg/mL, and N if it equals or exceeds it?

Examples with answers:
Decide: MIC of [C-]#[N+]C(=Cc1cccn1C)S(=O)(=O)c1ccc(C)cc1 [Example 30] strictly below 6 µg/mL?
N

Same again, this time with [C-]#[N+]C(=C(C)c1ccco1)S(=O)(=O)c1ccc(C)cc1 [Example 13]
Y

Same again, this time with [C-]#[N+]C(=C(C)c1cccs1)S(=O)(=O)c1ccc(C)cc1 [Example 17]
N

Same again, this time with [C-]#[N+]C(=CCCC)S(=O)(=O)c1ccc(C)cc1 [Example 24]
N

Same again, this time with Clc1ccc(COC(Cn2ccnc2)c2ccc(Cl)cc2Cl)c(Cl)c1 (stereo not drawn) [miconazole, reference compound]
Y

***
Decide: MIC of [C-]#[N+]C(=C(CCCC)c1ccccc1)S(=O)(=O)c1ccc(C)cc1 [Example 19] strictly below 6 µg/mL?
N

* * *

# System: Trichophyton mentagrophytus
# TEST: MIC (Minimum Inhibitory Concentration)
# Assay type: cell-based
# EXPERIMENTAL CONDITIONS: Trichophyton mentagrophytus R 177, read-out: MIC values
Each entry below carries its reported MIC.
Numeric only. Scale: µg/mL

I am curious: what MIC value has been reported for [C-]#[N+]C(C(C)=CC)S(=O)(=O)c1ccc(C)cc1 (stereo not drawn) [Example 27b] ?
6

Same again, this time with [C-]#[N+]C(=Cc1ccco1)S(=O)(=O)c1ccc(C)cc1
1.5

Proceed to the following item.
I am curious: what MIC value has been reported for [C-]#[N+]C(C1=CCSCC1)S(=O)(=O)c1ccc(C)cc1 (stereo not drawn) [Example 16b] ?
6

* * *

Each entry below carries its reported MIC.
# System: Trichophyton mentagrophytus
# TEST: MIC (Minimum Inhibitory Concentration)
# Format: cell-based
# EXPERIMENTAL CONDITIONS: read-out: MIC values, Trichophyton mentagrophytus R 177
Numeric only. Scale: µg/mL

I am curious: what MIC value has been reported for [C-]#[N+]C(=C1C2CC3CC(C2)CC1C3)S(=O)(=O)c1ccc(C)cc1 ?
100

***
I am curious: what MIC value has been reported for [C-]#[N+]C(=C1CCCCC1)S(=O)(=O)c1ccc(C)cc1 ?
3

Same again, this time with [C-]#[N+]C(C1=CCCCCCC1)S(=O)(=O)c1ccc(C)cc1 (centres unmarked)
50

Same again, this time with [C-]#[N+]C(=C1CCSCC1)S(=O)(=O)c1ccc(C)cc1 [Example 16a]
12.5

Same again, this time with [C-]#[N+]C(=C1CCCC1)S(=O)(=O)c1ccc(C)cc1
3

Same again, this time with [C-]#[N+]C(=C1CCCCC1)S(=O)(=O)c1ccccc1
3

Same again, this time with [C-]#[N+]C(=C1CCOCC1)S(=O)(=O)c1ccc(C)cc1 [Example 14a]
12.5
